Molecular target: T1, human IL-1α (human, UniProt P01583 113-271)
T1 construct: also called IL-1alpha; hIL-1α
T1 sequence (looked up): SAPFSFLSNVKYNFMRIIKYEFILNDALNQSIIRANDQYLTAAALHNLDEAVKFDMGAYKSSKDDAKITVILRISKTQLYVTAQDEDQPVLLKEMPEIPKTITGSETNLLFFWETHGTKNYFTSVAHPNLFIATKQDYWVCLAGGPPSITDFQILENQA
Experiment: Table 62 IC50; RBA presumed
Measurement Name: IC50 (nM)

(P) ABT1-95-143 (other, VK dAb) VL: DIQMTQSPSSLSASVGDRVTITCRASQPIVRNLRWYQQKPGKAPKLLITSSSYLEPGVPSRFSGSGSGTDFTLTISSLQPEDFATYHCQQGYRWPVTFGQGTKVEIKR
(Q) ABT1-158 (other, VK dAb) VL: DIQMTQSPSSLSASVGDRVTITCRASRSIGRGLNWYQQKPGKAPKLLIGGWSGLQSGVPSRFSGSGSGTDFTLTISSLQPEDFATYYCAQASPLPTFGQGTKVEIKR
Ask: So which one has the bigger IC50 here, P or Q ? Refer to your chosen entry by its label in the reply.
Reply: P
(P: 10 nM, Q: 2 nM)
